Molecular target: T1, PUF4 RNA-binding domain (Saccharomyces cerevisiae, UniProt P25339 537-888)
T1 sequence: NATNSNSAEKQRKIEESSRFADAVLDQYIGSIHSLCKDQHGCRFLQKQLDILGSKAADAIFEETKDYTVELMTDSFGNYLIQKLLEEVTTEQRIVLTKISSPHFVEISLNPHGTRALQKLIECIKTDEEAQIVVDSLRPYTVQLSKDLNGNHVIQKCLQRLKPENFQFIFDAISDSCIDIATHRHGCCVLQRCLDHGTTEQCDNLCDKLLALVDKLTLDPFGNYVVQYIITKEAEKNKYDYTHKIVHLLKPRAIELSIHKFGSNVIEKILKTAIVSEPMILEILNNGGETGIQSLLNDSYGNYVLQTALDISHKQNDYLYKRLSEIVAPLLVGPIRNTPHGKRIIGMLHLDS
Experiment: Mg; RNA-MaP; 20 mM Na-HEPES pH 7.4, 30 mM KOAc, 0.75 mM MgCl2, 0.1% Tween-20, 5% glycerol, 0.1 mg/mL BSA, 2 mM DTT; 25 C; 0.0125-409.6 nM protein
Settings: tags: N-His6-TEV cleaved; C-SNAP kept, Cy3B-labelled; label: tethered on chip by stalled RNA polymerase
pKd: −log10 of the molar value.
Kindly return Satisfied if reported pKd is no lower than 7; return Not satisfied if it is lower.

Q: Given the entry Ia_S2_P5E.1_K5.1_C5.1_H5.1_A5.1_F5.1_[T8A]_T5.1 (ssRNA) RNA: UUUGAUUAAUAUGAUAUCGUUCUUUCUUGUAUUAAUAUUCUUUCUCGAUAUCAUAUUAAUCUUU , answer whether its pKd meets or surpasses 7.
A: Satisfied

Q: Given the entry UCUCUUUGUAACGUGUCUCUU (ssRNA) [Ic_S1_P4E.1_K4.1_C4.1_H4.1_A4.1_[T5A]_[A6C]_[T7G]_F4.1_[A9G]_T4.1] , answer whether its pKd meets or surpasses 7.
A: Not satisfied

Q: Given the entry UCUCUUUGUACACGGUCUCUU (ssRNA) [Ic_S1_P4E.1_K4.1_C4.1_H4.1_A4.1_[T5C]_[T7C]_F4.1_[T8G]_[A9G]_T4.1] , answer whether its pKd meets or surpasses 7.
A: Not satisfied
